Measured values drawn from paper PMC12649225 for this set.

- Test system: BJ human skin fibroblast cells
- assayProtocol: LDH leakage assay (membrane integrity)
- particulars: lowest concentration causing >30% LDH leakage; BJ fibroblasts; 24 h; DMEM with 2% FBS; 0.05-60 µM
No end group written: not given here.
Overview of reported Cytotoxicity LDH Leakage >30% across a group of substances:
Write down the numeric answer in µM and omit the unit.

So what's the measured Cytotoxicity LDH Leakage >30% for this one? Ac-LKRVWKRVFKLLKRYWRQLKKPVR-NH2 (N-terminus and C-terminus assumed) [SAAP-148, reference compound]
1.88

Others:
# input substance: Ac-KRWVKIAKKWWRLL-NH2 [GDST-038] ; wanted: its Cytotoxicity LDH Leakage >30%
3.75

I am curious: what Cytotoxicity LDH Leakage >30% value has been reported for Ac-KRWVKILKKVWRFL-NH2 [GDST-045] ?
3.75

Dear colleague, I am looking for the recorded Cytotoxicity LDH Leakage >30% of the following substance: GKWKLFKKAFKKFLKILAC [BP2, reference compound]
1.88

---

- Tested on: BJ human skin fibroblast cells
- assayProtocol: WST-1 metabolic activity assay (cell viability)
- particulars: lowest concentration causing <70% metabolic activity (WST-1); BJ fibroblasts; 24 h; DMEM with 2% FBS; 0.05-60 µM
- Method: BJ human skin fibroblast cells (ATCC CRL-2522; RRID: CVCL_3653; LGC Standards, Germany (September 2023)) were cultured in Dulbecco’s Modified Eagle Medium (DMEM; Gibco, Waltham, MA, USA) supplemented with 10% (v/v) foetal bovine serum (FBS; Sigma-Aldrich) and 1% (v/v) penicillin/streptomycin (pen/strep; Gibco). Cell suspensions (5 × 10^5 cells/mL) were seeded into 96-well plates (100 μL/well; Thermo Scientific, Waltham, MA, USA) and allowed to adhere for 24 h. […]
No end group written: not given here.
Examples of substances with documented Cytotoxicity Metabolic Activity <70% follow.
Value expressed in µM; do not type the unit.

Some entries whose results are on file:
Fill blank: measured Cytotoxicity Metabolic Activity <70% of the substance Ac-KRWVKIAKKWWRLL-NH2 [GDST-038] is ____.
3.75

Fill in: Cytotoxicity Metabolic Activity <70% of Ac-LKRVWKRVFKLLKRYWRQLKKPVR-NH2 (N-terminus and C-terminus assumed) [SAAP-148, reference compound] is ___
3.75

Any idea what Cytotoxicity Metabolic Activity <70% was measured for GKWKLFKKAFKKFLKILAC [BP2, reference compound] ?
0.47

Continuing:
Name the reported Cytotoxicity Metabolic Activity <70% value associated with the substance Ac-KRWVKILKKVWRFL-NH2 [GDST-045]
3.75

---

- Tested on: A. baumannii RUH875 biofilm
- assayProtocol: Biofilm killing
- Assay type: cell-based, Acinetobacter baumannii
- particulars: 24 h treatment; up to 120 µM
No end group written: not given here.
attributeMeasured: A. baumannii biofilm killing, 24 h treatment (in words)

Return reported A. baumannii biofilm killing, 24 h treatment (in words); argument: Ac-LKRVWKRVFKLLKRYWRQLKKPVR-NH2 (N-terminus and C-terminus assumed) [SAAP-148, reference compound]
complete eradication

Could you tell me which A. baumannii biofilm killing, 24 h treatment (in words) is on file for GKWKLFKKAFKKFLKILAC [BP2, reference compound] ?
complete eradication
